Answer each item with its documented protein stability index.
B1: SNX3 (parent)
chain: FLRQLPFRGDDGIFDDNFIEERKQ

Variants of: B1
Assay: protein stability index of a GFP-peptide fusion (GPS, HEK-293T) (PSI 1-6); higher = more stable;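 further: lentivirally expressed fusions sorted by FACS into six bins by GFP to DsRed ratio, PSI derived from sequencing read proportions per bin multiplied by bin number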
Details: c terminus: a fixed tail appended
Answers are plain numbers.

Recorded protein stability index, per entry:
F18E    4.47
F14R    3.88

List reported protein stability index for each of these variants:
1. F7L
2. D15S
3. E20D
4. F1M

3.23
3.15
3.35
3.56

# return protein stability index for each item in the list
1. D16I
2. F1P
3. F7N
4. F7I
5. P6N
6. Q4T
7. I13N
8. E20W

1. 3.19
2. 4.99
3. 3.87
4. 2.83
5. 3.02
6. 3.08
7. 3.28
8. 2.17

Give protein stability index for each listed item.
1. E21Q
2. D16R
3. N17G

1: 2.84; 2: 3.23; 3: 4.12
